# Tested on: Spodoptera littoralis
# Assay remarks: Antifeedant activity against Spodoptera littoralis assessed as antifeedant index at 100 ppm by binary choice bioassay
# Assay type: functional
Would you mind telling me the reported AFI of each entry?
Field format: number, assumed %, no unit text.

# input Could you tell me which AFI is on file for CC(=O)OC[C@@]12C(=O)[C@@H](OC(C)=O)[C@@H](C)[C@]3(C[C@@H](c4ccoc4)OC3=O)[C@H]1CCC[C@]21CO1 ?
# output 31

# input Same question for CC(=O)OC[C@@]12C(=O)[C@H]3O[C@H](O)[C@](C[C@H](OC(C)=O)c4ccoc4)([C@@H]3C)[C@H]1CCC[C@]21CO1 please.
# output 17.8

# input Same lookup for CC(=O)OC[C@@]12C(=O)[C@H]3O[C@H](OC(C)=O)[C@](C[C@H](OC(C)=O)c4ccoc4)([C@@H]3C)[C@H]1CCC[C@]21CO1 , please.
# output 57.8

# input Next: CC(=O)OC[C@@]12C(=O)[C@H]3OC(=O)[C@@](C[C@H](OC(C)=O)c4ccoc4)(C1CCC[C@]21CO1)[C@@H]3C (some centres undefined)
# output 6.9
